# test_name: Leishmania major promastigote growth inhibition, primary screen (AID 1063);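 further: promastigotes grown with compound for 44 hours at 28 °C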
# condition: Leishmania major promastigotes, resazurin fluorescence viability; at 10 µM; active compounds read high
The campaign covered roughly 200,000 compounds. About 18,000 (9%) were called active. What follows is part of a selection rich in actives, with near analogues and random picks from the rest.
readout: inhibition

Worked examples, 4 molecules total:
| molecule | inhibition |
| --- | --- |
| COc1ccc(-c2nc(N)sc2C2(O)C(=O)Nc3c(Br)cc(F)cc32)cc1OC (stereo not given) | -2.63% (inactive) |
| CN(C)c1cc[n+](Cc2ccccc2)cc1 | -2.95% (inactive) |
| COc1ccc(/C=N/NC(=O)c2ccncc2)cc1CN1CCCc2ccccc21 | 63.4% (active) |
| Cn1c(=N)n(CC(O)c2cccs2)c2ccccc21 (stereo not given) | 1.42% (inactive) |

Next molecule, inhibition to be filled in.
The recorded inhibition for COC(=O)c1ccc(Cc2ccccc2)o1 is -4.65% (inactive)

The reported numbers originate from PubChem BioAssay AID1063.
